Target: Fibroblast growth factor 10 (Homo sapiens) (UniProt O15520)
Sequence (O15520 whole entry, looked up): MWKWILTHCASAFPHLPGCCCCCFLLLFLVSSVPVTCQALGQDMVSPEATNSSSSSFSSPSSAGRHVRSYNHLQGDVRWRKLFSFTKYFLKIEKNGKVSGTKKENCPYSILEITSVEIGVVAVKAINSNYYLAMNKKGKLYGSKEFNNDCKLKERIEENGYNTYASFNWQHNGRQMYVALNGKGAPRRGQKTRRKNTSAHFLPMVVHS
Test: FGF10 binders on small-molecule microarrays, primary screen, biochemical, small-molecule microarray, 635 nm fluorescence (AID 1102)
Settings: FGF10 binding, fluorescence 635 nm, higher = more signal
Value type: composite z-score
Numbers only.

Examples from the recorded data:
Compound: COc1ccc(NN2C(C(O)c3ccc(OC)c(OCc4ccccc4)c3)C=CC3C(=O)N(C4CCCCC4)C(=O)C32)cc1 (configuration not stated)
composite z-score: 0.622

Compound: CC(C)C[C@@H]1NC(=O)[C@@H]2C[C@H](C(=O)NCCCCCC[N+](C)(C)C)[C@H](c3ccc(O)cc3)N2C1=O
composite z-score: 0.623

Compound: COC(=O)[C@@]1(Cc2ccc(OC)cc2)[C@H]2c3cc(C(=O)N4CCCC4)n(Cc4ccccn4)c3C[C@H]2CN1C(=O)c1ccccc1
composite z-score: 0.928

Compound: CC=CC(O)C1C=CC2C(=O)N(c3ccccc3)C(=O)C2N1Nc1ccc(C(C)C)cc1 (configuration not stated)
composite z-score: 0.878

Compound: COc1ccc(C(O)C2C=CC3C(=O)N(c4ccccc4)C(=O)C3N2Nc2ccc([N+](=O)[O-])cc2)cc1OCc1ccccc1 (configuration not stated)
composite z-score: 1.02

Please state composite z-score for every compound in the list that follows.
1. COC(=O)c1c(CC[C@@H](CO)NC(=O)N[C@@H](Cc2ccccc2)Cn2cc(C3(O)CCCCC3)nn2)oc(C(C)=O)c1C(=O)OC
2. NC(=O)NCC#Cc1ccc2c(c1)[C@]1(C(=O)N2)[C@H](C(=O)NC[C@H](O)c2ccccc2)[C@H]2C(=O)O[C@H](c3ccccc3)[C@H](c3ccccc3)N2[C@@H]1c1ccc(O)cc1

Output:
[1.31, 0.893]

---

System: Lefty1
Test: Lefty1 binders on small-molecule microarrays, primary screen, biochemical, small-molecule microarray, 635/667 nm fluorescence (AID 1139)
Conditions: small-molecule microarray binding, fluorescence 635/667; higher = more signal
Would you kindly list composite z-score for each of these compounds?

Examples from the recorded data:
Compound: COc1ccc(C(O)C2C=CC3C(=O)N(C)C(=O)C3N2Nc2ccccc2)cc1OCc1ccccc1 (stereo not given)
composite z-score: 0.0084
--
Compound: O=c1oc(-c2ccccc2)nc2cc(Br)ccc12
composite z-score: 0.585
--
Compound: O=c1cccc(CCc2ccccc2)o1
composite z-score: 0.593
--
Compound: CCCCCCc1nc(CCCc2cc3c(c(CCCCCC)n2)[Si](C(C)C)(C(C)C)OC3)cc2c1[Si](C(C)C)(C(C)C)OC2
composite z-score: 0.0479
--
Compound: CCCCCN1CC=CC23O[C@@H]4/C=C\CCC(C)OC(=O)C4[C@H]2C(=O)N(CCCCCO)[C@@H]3C1=O (stereo not given in full)
composite z-score: 0.184
--
Compound: O=C(CS)NCCCCCCNC(=O)[C@H]1C[C@H]2C(=O)NCC(=O)N2[C@H]1c1ccc(O)cc1
composite z-score: -0.0467
--
Compound: CS(=O)(=O)CCOC(=O)C1=CC(CCCO)=CC(c2cccs2)N(Cc2cc3c(cc2Br)OCO3)C=C1C(=O)OCCS(C)(=O)=O (stereo not given)
composite z-score: 1.22
--
Compound: COCCOC(=O)N1C(=O)[C@@]2(c3cc(C#CCCO)ccc31)[C@H](C(=O)NC[C@H](O)c1ccccc1)[C@H]1C(=O)O[C@H](c3ccccc3)[C@H](c3ccccc3)N1[C@@H]2c1ccc(O)cc1
composite z-score: 0.429

Please state composite z-score for every compound in the list that follows.
1. O=C1OCC=C[C@H]2OC34C=CCN(c5ccc(Cl)cc5)C(=O)[C@H]3N(CCCCCCO)C(=O)[C@@H]4[C@@H]12 (stereo not given in full)
2. CCOC(=O)C1=C[C@@H](CC)N(S(=O)(=O)c2ccc(C)cc2)[C@H]1c1ccccc1
3. COc1ccc(C#Cc2ccc3c(c2)[C@]2(C(=O)N3)[C@H](C(=O)NC[C@H](O)c3ccccc3)[C@H]3C(=O)O[C@H](c4ccccc4)[C@H](c4ccccc4)N3[C@@H]2c2ccccc2OCCO)cc1
4. COC(=O)C(CC#Cc1ccc2c(c1)[C@]1(C(=O)N2)[C@H](C(=O)NC[C@H](O)c2ccccc2)[C@H]2C(=O)O[C@H](c3ccccc3)[C@H](c3ccccc3)N2[C@@H]1c1ccc(OCCO)cc1)C(=O)OC
5. O=C(CCN1CCOCC1)c1cccc(O)c1

Output:
1. -1.09
2. 0.0048
3. 1.42
4. 1.69
5. 1.41

Please state composite z-score for every compound in the list that follows.
1. O=C1OCCC=C[C@H]2OC34C=CCN(c5ccc6ccccc6c5)C(=O)[C@H]3N(CCCCCO)C(=O)[C@@H]4C12 (stereo not given in full)
2. COCCOC(=O)N1C(=O)[C@@]2(c3cc(C#CCNC(N)=O)ccc31)[C@H](c1ccc(O)cc1)N1[C@H](c3ccccc3)[C@H](c3ccccc3)OC(=O)[C@H]1[C@@H]2C(=O)Nc1nc2ccccc2s1

Output:
[-0.332, 0.851]

---

Assay: CREB reporter modulators under forskolin, primary screen, cell-based, PC12, CRE-LacZ reporter, forskolin-stimulated (AID 1146);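 further: PC12 cells with 6xCRE LacZ reporter stimulated by forskolin 10 µM; beta-galactosidase reporter signal reflecting CREB driven transcription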
Details: luminescence, 4.5 h, higher = more signal, called active from +8 up or from −8 down
Value type: z-score
Give bare numbers.

Compound: Cc1ccc(S[C@]2(C(=O)O)CC(=O)N(C3Cc4ccccc4C3)[C@@H]2c2ccc(CO)cc2I)cc1
z-score: -0.097

Please state z-score for every compound in the list that follows.
1. NCCCCCNC(=O)[C@H]1C[C@H]2C(=O)NCC(=O)N2[C@H]1c1cccc(OCCO)c1
2. O=C1C2C=CC(C(O)c3ccc(B(O)O)cc3)N(Nc3ccccc3)C2C(=O)N1c1ccccc1 (stereo not drawn)
3. COc1ccc([Si](C)(C)[C@H]2[C@H](CC(=O)N(CCO)Cc3ccccc3)O[C@@]3(C(=O)N(Cc4cccc(N5CCC5=O)c4)c4ccccc43)[C@@H]2C)cc1
4. CCC[C@@H]1C=C(C(=O)O)[C@H](c2ccc(C)cc2)N1S(=O)(=O)c1ccc(C)cc1
5. CC(C)C[C@@H]1NC(=O)[C@H]2C[C@@H](C(=O)NCCCCCCNC(=O)CS)[C@@H](c3cccc(OCCO)c3)N2C1=O

Output:
1. 0.0161
2. 1.11
3. -0.854
4. 0.348
5. -1.47

Please state z-score for every compound in the list that follows.
1. C=C[C@H](COC(C)=O)N(Cc1ccc(OC(C)=O)c(OC)c1)S(=O)(=O)c1ccc(Br)cc1
2. C=CCOC(=O)[C@@H]1[C@H]2C(=O)O[C@H](c3ccccc3)[C@H](c3ccccc3)N2[C@H](c2ccc(OCCOC(=O)[C@@H]3C[C@@H]4C(=O)N[C@@H](Cc5ccccc5)C(=O)N4[C@@H]3c3cccc(OCCO)c3)cc2)[C@@]12C(=O)Nc1ccc(I)cc12

Output:
[-1.9, 0.0071]

---

System: Human papillomavirus type 1a protein E7 (residues 44-93)
Experiment: HPV1a E7 fragment binders on microarrays, primary screen, biochemical, small-molecule microarray, residues 44-93, 635 nm fluorescence (AID 1108);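 further: E7 fragment applied at 1 µg/mL in TBST for 1 h at 4 C; score combines spot fluorescence with its signal to noise ratio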
Conditions: small-molecule microarray binding, fluorescence 635 nm; higher = more signal
Would you kindly list composite z-score for each of these compounds?
Give bare numbers.

Examples from the recorded data:
Compound: COc1ccc(C(O)C2C=CC3C(=O)NC(=O)C3N2Nc2ccccn2)cc1OCc1ccccc1 (stereo not drawn)
Value measured: -0.156
//
Compound: C=CCNC(=O)[C@@H]1[C@H]2C(=O)O[C@H](c3ccccc3)[C@H](c3ccccc3)N2[C@H](c2ccccc2OCCO)[C@@]12C(=O)Nc1ccc(C#CC3=CCCCC3)cc12
Value measured: 1.41
//
Compound: O=C/C=C/c1ccc(Cl)cc1
Value measured: -1.74
//
Compound: COC(=O)[C@@]1(Cc2ccc(OC)cc2)[C@H]2c3cc(C(=O)N4CCCC4)n(Cc4ccccn4)c3C[C@H]2CN1C(=O)c1ccccc1
Value measured: 1.48
//
Compound: O=C(CS)NCCCCCCNC(=O)[C@@H]1C[C@@H]2C(=O)N3CCC[C@H]3C(=O)N2[C@@H]1c1ccc(O)cc1
Value measured: 1.41

Please state composite z-score for every compound in the list that follows.
1. O=C1OCC=C[C@H]2OC34C=CCN(c5ccc(Cl)cc5)C(=O)[C@H]3N(CCCCCCO)C(=O)[C@@H]4[C@@H]12 (stereo partly drawn)
2. N#Cc1ccc(NN2C(C(O)C3CCCCC3)C=CC3C(=O)N(c4ccccc4)C(=O)C32)cc1 (stereo not drawn)
3. C=C(CCCC)C(=O)CC[C@H](OC(=O)c1cccnc1)c1cccc(OCCO)c1

Output:
[-0.851, 1.48, 0.343]

---

Assay: modulators of S6 phosphorylation in cells, primary screen, cell-based, A549, cytoblot, luminescence, serum-stimulated (AID 1158);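 further: serum-stimulated A549 lung adenocarcinoma cells; signal is phosphorylated S6 detected by cytoblot immunostaining with HRP secondary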
Settings: A549 phospho-S6 cytoblot, 5 h, higher = more signal
Value type: z-score

Compound: COCCOC(=O)N1C(=O)[C@@]2(c3cc(C#CC4=CCCCC4)ccc31)[C@H](C(=O)N1CCc3cc(OC)c(OC)cc3C1)[C@H]1C(=O)O[C@H](c3ccccc3)[C@H](c3ccccc3)N1[C@@H]2c1ccccc1OCCO
z-score: -0.113
//
Compound: COC(=O)[C@]1(Cc2ccccc2N=[N+]=[N-])N=C(c2ccc(OCCCO)cc2)O[C@@H]1c1ccccc1N=[N+]=[N-]
z-score: 0.0559
//
Compound: O=C(OCCF)C1=CCC(c2cccc(Cl)c2)O1 (centres undefined)
z-score: 0.543

Okay, now this compound:
// sample `O=C(CCN1CCOCC1)c1cccc(O)c1` , its z-score was 0.4

Sourced from PubChem BioAssay
